# ASSAYED TARGET: T1, cardiotoxin 5 (CTX5) (Naja atra (Taiwan cobra), UniProt Q98961 22-81)
# T1 sequence: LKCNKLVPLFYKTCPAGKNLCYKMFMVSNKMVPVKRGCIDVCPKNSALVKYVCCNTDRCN
# EXPERIMENTAL PROTOCOL: fluorescence quenching titration; 10 mM Tris-HCl pH 7.5, 1 mM EDTA, 100 mM NaCl; temperature not stated; […]
# RUN PARAMETERS: protein: native; tags: none; label: 5'-FAM
pKd: −log10 of the molar value.
READOUT: pKd

>>> meas_value("GCGAGGTGTTCGAGAGTTAGGGCGACATGACCAAACGTT (ssDNA) [FAM-bgt1]")
4.77
